Measured Ki (CB2 (Homo sapiens))
Write the value in nM as a bare number.

// solved cases for Ki follow
>>> df
                                   compound  unit_abbreviation  meas_value
0  COC(=O)CCc1c(Cc2ccc[nH]2)[nH]c(C(=O)OCc2ccccc2)c1C [NSC669611]                 nM         923
1  Cc1ccc(S(=O)(=O)NC(CC(=O)OCc2ccccc2)C(=O)OCc2ccccc2)cc1 (stereo not shown) [NSC296950]                 nM        2360
2  COc1ccc(C(=O)c2nc3ccccc3n2CC(=O)c2ccc(Cl)cc2)cc1 [NSC745454]                 nM        1550
3  CC1CN(CCOC(=O)Nc2ccc(Cl)cc2)CCN1C(C)(C)C (stereo not shown) [NSC93299]                 nM        2240

Could you share what Ki was measured for Cc1ccc(S(=O)(=O)N(Cc2ccc(Cl)cc2)S(=O)(=O)c2ccc(C)cc2)cc1 [NSC273936] , tested on CB2 (Homo sapiens)?
346

Then what about the compound Cc1ccc(S(=O)(=O)N(CCc2ccccc2)S(=O)(=O)c2ccc(C)cc2)cc1 [NSC273940] ?
195

Then what about the compound CCN(CC)CCCNc1cccc2ccc(OC)nc12.I [NSC402300] ?
398

Then what about the compound Cc1ccc(S(=O)(=O)N(CCc2ccc(Cl)cc2)S(=O)(=O)c2ccc(C)cc2)cc1 [NSC273939] ?
192

Then what about the compound Cc1ccc(OCc2c(COc3ccc(Cl)cc3)sc3ccc(Cl)cc23)cc1 [NSC162677] ?
1550

Then what about the compound Cc1ccc(C)c(NC(=O)CCC(=O)C(C#N)c2nc3ccccc3s2)c1 (stereo not shown) [NSC618804] ?
656
